target: αvβ3 integrin (Homo sapiens, UniProt P05106+P06756); construct: purchased Millipore; experiment: Competitive solid-phase integrin binding assay (ELISA), vitronectin-αvβ3; settings: competitive ELISA, purified integrin; n = 5 ± SEM; read-out: In vitro IC50 αvβ3
Would you mind telling me the reported IC50 of each entry?
Numbers only, in nM.

molecule | IC50, nM
CC(C)[C@H]1NC(=O)[C@H](Cc2ccccc2)NC(=O)[C@H](CC(=O)O)NC(=S)CNC(=O)[C@H](CCCNC(=N)N)NC1=O [Compound 9d] | 584

Would you mind giving IC50 for every molecule in the list below?
1. CC(C)[C@@H]1NC(=O)[C@@H](Cc2ccccc2)NC(=O)[C@H](CC(=O)O)NC(=S)CNC(=O)[C@H](CCCNC(=N)N)NC1=O [Compound 10]
2. CC(C)[C@@H]1NC(=S)[C@H](Cc2ccccc2)NC(=O)[C@H](CC(=O)O)NC(=O)CNC(=O)[C@H](CCCNC(=N)N)NC1=O [Compound 9b]
3. CC(C)[C@@H]1NC(=O)[C@@H](Cc2ccccc2)NC(=S)[C@H](CC(=O)O)NC(=O)CNC(=O)[C@H](CCCNC(=N)N)NC1=O [Compound 11]
4. CC(C)[C@@H]1NC(=S)[C@@H](Cc2ccccc2)NC(=O)[C@H](CC(=O)O)NC(=O)CNC(=O)[C@H](CCCNC(=N)N)NC1=O [Compound 7]

Reply |
[252, 0.2, 72, 372]

====

Would you mind telling me the reported IC50 of each entry?
Biological target: α5β1 integrin (Homo sapiens, UniProt P05556+P08648)
Experiment: Competitive solid-phase integrin binding assay (ELISA), fibronectin-α5β1
Details: purified integrin, n = 5 ± SEM, read-out: In vitro IC50 α5β1
Method: The initial structure was obtained by following a simulated annealing protocol. […] For the structure of 7-11 (including 9a-9d) explicit solvent box of H2O was used with periodic boundary conditions. A 2 ns restrained molecular dynamics run was then performed. […] Competitive solid-phase integrin binding assay The activity of peptide as integrin antagonist was assessed using solid phase integrin binding assay. […] 96-well plate reader at 492 nm. […]
Answers are plain numbers, in nM.

smilesRecord | targetOrTestSystem | IC50 / nM
CC(C)[C@@H]1NC(=O)[C@H](Cc2ccccc2)NC(=S)[C@H](CC(=O)O)NC(=O)CNC(=O)[C@@H](CCCNC(=N)N)NC1=O | α5β1 integrin (Homo sapiens, UniProt P05556+P08648) | 461

Now consider a different molecule.
Value sought: IC50, system α5β1 integrin (Homo sapiens, UniProt P05556+P08648), item `CC(C)[C@@H]1NC(=O)[C@@H](Cc2ccccc2)NC(=O)[C@H](CC(=O)O)NC(=O)CNC(=S)[C@H](CCCNC(=N)N)NC1=O` . Result: 53

====

target: αvβ5 integrin (Homo sapiens, UniProt P06756+P18084); assay: Competitive solid-phase integrin binding assay (ELISA), vitronectin-αvβ5; settings: purified integrin, n = 5 ± SEM, read-out: In vitro IC50 αvβ5
readoutType: IC50 (nM)
Numbers only, in nM.

Example molecules with recorded IC50:
smilesRecord | endpointValue
CC(C)[C@@H]1NC(=O)[C@@H](Cc2ccccc2)NC(=S)[C@H](CC(=O)O)NC(=O)CNC(=O)[C@H](CCCNC(=N)N)NC1=O | 1.3
CC(C)[C@@H]1NC(=S)[C@@H](Cc2ccccc2)NC(=O)[C@H](CC(=O)O)NC(=O)CNC(=O)[C@H](CCCNC(=N)N)NC1=O | 0.7

Now consider a different molecule.
Value sought: IC50, system αvβ5 integrin (Homo sapiens, UniProt P06756+P18084), item `CC(C)[C@@H]1NC(=S)[C@H](Cc2ccccc2)NC(=O)[C@H](CC(=O)O)NC(=O)CNC(=O)[C@H](CCCNC(=N)N)NC1=O` . Result: 1.6

This collection of values is drawn from paper PMC5909342.
